- System: Enterococcus faecalis ATCC 29212
- test_details: MIC, broth micro-dilution (CLSI)
- experimental_conditions: Enterococcus faecalis, ATCC29212, read-out: Antimicrobial activity MIC
assay_metric: MIC

{"compound": "CC(C)(O/N=C(\\C(=O)N[C@@H]1C(=O)N2C(C(=O)[O-])=C(C[n+]3ccccc3)CS[C@H]12)c1csc(N)n1)C(=O)O [Ceftazidime]", "subject_of_test": "Enterococcus faecalis ATCC 29212", "result": "≤ 4 µg/mL"}
{"compound": "CN[C@H](CC(C)C)C(=O)N[C@H]1C(=O)N[C@@H](CC(N)=O)C(=O)N[C@H]2C(=O)N[C@H]3C(=O)N[C@H](C(=O)N[C@H](C(=O)O)c4cc(O)cc(O)c4-c4cc3ccc4O)[C@H](O)c3ccc(c(Cl)c3)Oc3cc2cc(c3O[C@@H]2O[C@H](CO)[C@@H](O)[C@H](O)[C@H]2O[C@H]2C[C@](C)(N)[C@H](O)[C@H](C)O2)Oc2ccc(cc2Cl)[C@H]1O [Vancomycin]", "subject_of_test": "Enterococcus faecalis ATCC 29212", "result": "≤ 1 µg/mL"}
{"compound": "CC1(C)S[C@@H]2[C@H](NC(=O)[C@H](N)c3ccccc3)C(=O)N2[C@H]1C(=O)O [Ampicillin]", "subject_of_test": "Enterococcus faecalis ATCC 29212", "result": "≤ 1 µg/mL"}

From here, focus on the item given below.
Prompt: I'd like to know its MIC. The compound in question is CNC(C)C1CCC(N)C(OC2C(N)CC(N)C(OC3OCC(C)(O)C(NC)C3O)C2O)O1 (stereo not shown) [Gentamicin]
Completion: ≤ 1 µg/mL

The reported numbers originate from paper PMC6323060.
